Ref: PubChem BioAssay

target: Nuclear receptor coactivator 3 (Homo sapiens) (UniProt Q9Y6Q9); test: SRC3 coactivator transcriptional activity inhibitors, confirmation, cell-based, luminescence, quadruplicate (AID 588792); details: HEK293 GAL4-SRC3 luciferase reporter, at 3.6 µM, stronger effect = higher value
Sequence (Q9Y6Q9 whole entry, looked up, the tested form may be a part): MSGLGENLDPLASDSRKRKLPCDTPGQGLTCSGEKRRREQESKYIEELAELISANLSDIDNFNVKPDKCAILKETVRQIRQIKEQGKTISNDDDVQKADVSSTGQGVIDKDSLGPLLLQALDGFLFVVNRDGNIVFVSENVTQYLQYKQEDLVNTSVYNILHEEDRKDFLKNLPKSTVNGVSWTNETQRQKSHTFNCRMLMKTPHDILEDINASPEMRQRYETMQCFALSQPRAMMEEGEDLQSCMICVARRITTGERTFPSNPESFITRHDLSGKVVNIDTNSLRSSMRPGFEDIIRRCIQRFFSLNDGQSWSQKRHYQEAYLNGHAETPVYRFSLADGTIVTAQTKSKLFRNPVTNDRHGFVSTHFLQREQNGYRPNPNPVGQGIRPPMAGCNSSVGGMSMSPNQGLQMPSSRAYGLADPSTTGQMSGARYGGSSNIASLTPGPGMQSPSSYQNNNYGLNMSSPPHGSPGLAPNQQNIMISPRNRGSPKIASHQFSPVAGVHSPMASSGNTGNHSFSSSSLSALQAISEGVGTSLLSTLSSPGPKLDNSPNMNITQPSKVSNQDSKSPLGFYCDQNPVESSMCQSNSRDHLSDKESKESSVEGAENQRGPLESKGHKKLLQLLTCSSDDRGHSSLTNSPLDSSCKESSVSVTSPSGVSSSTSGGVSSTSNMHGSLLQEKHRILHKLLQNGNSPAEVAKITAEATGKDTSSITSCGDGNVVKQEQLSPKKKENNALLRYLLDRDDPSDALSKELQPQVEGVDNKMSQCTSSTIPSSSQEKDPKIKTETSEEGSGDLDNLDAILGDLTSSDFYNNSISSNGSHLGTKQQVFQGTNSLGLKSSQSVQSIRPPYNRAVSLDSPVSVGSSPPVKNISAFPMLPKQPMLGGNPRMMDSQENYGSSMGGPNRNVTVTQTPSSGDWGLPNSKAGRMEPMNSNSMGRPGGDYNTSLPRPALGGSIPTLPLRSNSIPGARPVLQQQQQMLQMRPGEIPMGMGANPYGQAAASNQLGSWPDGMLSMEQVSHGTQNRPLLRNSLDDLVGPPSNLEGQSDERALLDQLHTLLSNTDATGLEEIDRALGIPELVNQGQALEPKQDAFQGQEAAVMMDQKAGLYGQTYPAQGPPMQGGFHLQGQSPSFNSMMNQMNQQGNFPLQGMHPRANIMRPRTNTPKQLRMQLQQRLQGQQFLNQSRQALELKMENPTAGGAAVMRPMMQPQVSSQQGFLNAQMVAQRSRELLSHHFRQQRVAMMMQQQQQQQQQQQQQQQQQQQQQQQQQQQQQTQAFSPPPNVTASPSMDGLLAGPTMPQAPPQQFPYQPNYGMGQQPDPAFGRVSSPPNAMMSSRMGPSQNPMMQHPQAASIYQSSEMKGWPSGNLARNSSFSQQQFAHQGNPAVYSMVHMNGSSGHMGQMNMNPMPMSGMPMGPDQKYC
Where inhibition equals or exceeds 50%, the correct label is y; where it does not, the label is n.

Request: Has Cc1ccc(C(=O)Nc2cnc3ccccc3c2)cc1 a recorded inhibition greater than or equal to 50%?
Response: n

Request: Has Cc1nc([N+](=O)[O-])c(Sc2nc3ccccc3n2C)n1Cc1ccccc1 a recorded inhibition greater than or equal to 50%?
Response: n

Request: Has NC(=S)N/N=C\c1c(OCc2ccccc2Cl)ccc2ccccc12 a recorded inhibition greater than or equal to 50%?
Response: n

Request: Has COc1ccc(N/N=C(/N=Nc2nc(C)cc(=O)[nH]2)c2ccccc2)cc1 a recorded inhibition greater than or equal to 50%?
Response: n

Request: Has CC1=C(C(=O)OCc2ccc3c(c2)OCO3)C(c2cccc([N+](=O)[O-])c2)NC(=O)N1 (stereo not given) a recorded inhibition greater than or equal to 50%?
Response: y
